Numbers sourced from the RNAGym collection of RNA variant scans (doi:10.7554/elife.80360).

B1: Twister Ribozyme (parent)
chain: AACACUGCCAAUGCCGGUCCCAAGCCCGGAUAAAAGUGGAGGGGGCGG

Variants of: B1
Experiment: self-cleavage, relative activity (ratio to wild type); higher = more cleavage; co-transcriptional
Below, each entry is listed with its recorded self-cleavage.

Some variants with recorded self-cleavage:
> print(dat)
    mutant.name  endpoint.name  experimental.result
 1    A32C G41U  self-cleavage                0.603
 2         G39C  self-cleavage                0.158
 3    C14G G16U  self-cleavage                0.138
 4     A1U C20G  self-cleavage                0.112
 5     G7C G44U  self-cleavage               0.0818
 6     A4G G44A  self-cleavage                 0.88
 7    U18G A35U  self-cleavage               0.0933
 8         G16U  self-cleavage                 1.07
 9     G7U A30C  self-cleavage               0.0485
10    G13C U31C  self-cleavage                0.552

Using the record for C27A G48A , report its self-cleavage.
0.275

Using the record for C3G A11G , report its self-cleavage.
0.503
